Value source: patent CN107840889A

# assaySystem: T1, CD123-his-biotin抗原 (Homo sapiens (Human), UniProt P26951 19-305, biotin label (site not stated))
# T1 construct: Bought from SinoBiological and biotin-labelled; also called CD123-Biotin; CD123抗原; not shown: his tag
# T1 sequence: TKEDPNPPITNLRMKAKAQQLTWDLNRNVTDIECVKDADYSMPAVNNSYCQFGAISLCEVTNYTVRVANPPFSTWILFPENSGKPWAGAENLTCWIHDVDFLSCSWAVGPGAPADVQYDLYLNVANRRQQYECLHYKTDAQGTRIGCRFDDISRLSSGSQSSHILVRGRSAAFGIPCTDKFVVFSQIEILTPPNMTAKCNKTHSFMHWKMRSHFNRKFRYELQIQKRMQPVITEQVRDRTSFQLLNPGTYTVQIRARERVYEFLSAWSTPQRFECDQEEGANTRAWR
# assayProtocol: BLI (Octet RED96), CD123-Biotin on AR2G sensor, scFv periplasmic extract as analyte
# Design: unit not given here
metricName: 响应
Give your answer as a number; write no unit.

Examples with answers:
1. 4D1 (scFv, V domains shown, also called 抗体4D1) VH: QVQLQQPGAELVRPGASVKLSCKASGYQFTSYWMNWVKQRPDQGLEWIGRIDPYDSETHYNQKFKDKAILTVDKSSSTAYMQLSSLTSEDSAVYYCARGNWDDYWGQGTTLTVSS VL: DVQITQSPSYLAASPGETITINCRASKSISKDLAWYQEKPGKTNKLLIYSGSTLQSGIPSRFSGSGSGTDFTLTISSLEPEDFAMYYCQQHNKYPYTFGGGTKLEIK; 0.25
2. 4A6 (scFv, V domains shown) VH: QVQLQQPGAELVRPGASVKLSCKASGYTFQSYWMNWVKQRPDQGLEWIGRIDPYDSETHYNQKFKDKAILTVDKSSSTAYMQLSSLTSEDSAVYYCARGNWDDYWGQGTTLTVSS VL: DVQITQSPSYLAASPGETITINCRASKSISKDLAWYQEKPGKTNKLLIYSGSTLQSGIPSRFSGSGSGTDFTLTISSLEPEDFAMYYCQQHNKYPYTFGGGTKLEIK; 0.106

Next up:
Enquiry: So what does the record say about 响应 for 7F1 (scFv, V domains shown, also called 抗体7F1) VH: QVQLQQPGAELVRPGASVKLSCKASGYTFTSYWMNWVKQRPDQGLEWIGRIDPYDSETHYNQKFKDKAILTVDKSSSTAYMQLSSLTSEDSAVYYCARGNWDDYWGQGTTLTVSS VL: DVQITQSPSYLAASPGETITINCRASKSISKDLAWYQEKPGKTNKLLIYSGSTLQSGIPSRFSGSGSGTDFTLTISSLEPEDFAMYYCQQSNKYPYTFGGGTKLEIK ?
Return: 0.486
